system: MCF7 breast; assay: NCI tumour cell line growth inhibition, 48 h
Items are presented alongside their recorded TGI.
Property Label: TGI (µM)

1. CCN(Cc1c(Cl)cccc1Cl)c1ccc(CO)c(Cl)c1; 13.4
2. CCN1CCC(O)(/C=C/c2ccc(C(C)C)cc2)C(C(=O)/C=C/c2ccc(C(C)C)cc2)C1 (configuration not stated); 14
3. c1ccc(CN2CCN3CCN(CC2)CCN(Cc2ccccc2)CC3)cc1; 18.8
4. COc1ccc(C(=O)/C=C/c2cc(O)c(O)cc2F)c(OC)c1; 13.9
5. O=Nc1c(-c2c(O)[nH]c3ccc(Br)cc23)[nH]c2ccccc12; 8.48
6. COc1ccc(C2=NN=C3C(c4ccccc4)=Nc4ccccc4N3C2)cc1; 85
7. COc1ccc2ccc3oc([N+](=O)[O-])cc3c2c1; 2.34
8. COc1cc2c3c(n(C)c(=O)c2cc1OC)-c1cc2c(cc1/C3=C\CCNCCCN)OCO2; 13.4
9. Cc1cn(S(=O)(=O)c2ccccc2)c2c(OCc3ccccc3)cc(NS(C)(=O)=O)cc12; 27.3
10. COc1c(B(O)O)cc(F)cc1-c1nc2ccc3[nH]ncc3c2c2c1CCCC2; 6.57

---

test system: MDA-MB-435; assay: NCI tumour cell line growth inhibition, 48 h
Property Label: TGI (µM)

1. c1ccc(CN2CCN3CCN(CC2)CCN(Cc2ccccc2)CC3)cc1; 12.6
2. CC(C)(C)[Si](C)(C)OCC1OC(n2cnc3c(=O)[nH]c(N)nc32)C(O[Si](C)(C)C(C)(C)C)C1O[Si](C)(C)C(C)(C)C (stereo not given); 2.88

---

test system: HOP-92 NSCLC; assay: NCI tumour cell line growth inhibition, 48 h; in the data active = GI50 below about 0.43 µM; inactive = the rest
Outcome codes: true (1) for active, false (0) for inactive

1) N#CC1C=Cc2c(ccc3ccccc23)N1C(=O)c1ccccc1 (stereo not drawn); false (0)
2) C=C1C(=O)O[C@H]2[C@H]1CC/C(COC(=O)NCc1ccc(Cn3c(=O)sn(-c4ccccc4)c3=O)cc1)=C\CC[C@@]1(C)O[C@@H]21; false (0)
3) Cc1ccc(-c2cc(O)c(-c3ccc(C)cc3C)cc2O)c(C)c1; false (0)
4) CCSc1ccc(C2C(Br)C(=O)N2c2cc(OC)c(OC)c(OC)c2)cc1 (stereo not drawn); false (0)
5) COc1ccc2ccc3oc([N+](=O)[O-])cc3c2c1; true (1)
6) CCN(Cc1c(Cl)cccc1Cl)c1ccc(CO)c(Cl)c1; false (0)
7) Cc1c(Cl)cccc1NC(=O)c1sc2nc3c(cc2c1N)CCCCC3; true (1)
8) COc1cccc2c1n([O-])c1cccc(OC)c1[n+]2=O; false (0)

---

test system: M14 melanoma; assay: NCI tumour cell line growth inhibition, 48 h; in the data active means GI50 below about 0.43 µM; inactive means the rest
Outcome codes: T for active, F for inactive

1) CCC[CH2][Sn]1([CH2]CCC)[O]CC(C)[O]1 (stereo not given); F
2) CCCCCn1c(C)cc(/C=C\c2ccc3cc(C)ccc3[n+]2C)c1C; T
3) CC1(C)C(=O)/C(=C\c2cccnc2)C[C@]2(C)[C@H]3CC[C@@H]4[C@@H](C(=O)/C=C/c5ccncc5)CC[C@@]4(C)[C@]3(C)CC[C@@H]12; F
4) O=C1OCC2=C1C(c1ccccc1)c1cc3c(cc1N2CCO)OCCO3 (stereo not given); T
5) N#CC1C=Cc2c(ccc3ccccc23)N1C(=O)c1ccccc1 (stereo not given); T
6) CC(O)c1cc(C(=O)N[C@@H](C)Cn2ccc(-c3ccc(C#N)c(Cl)c3)n2)n[nH]1 (stereo not given in full); F
7) NC(=S)NN=C1CSSC1; F
8) COc1ccc2nc3cc(Cl)ccc3c(NCCNc3c4ccc(Cl)cc4nc4ccc(OC)cc34)c2c1; F
9) CC(=O)c1cc(O)c2ccccc2c1O; F
10) Cc1ccc([C@]2(C)CC[C@H](C)/C2=C\Br)c(O)c1; F

---

The entries below are paired with their reported TGI.
system: MDA-MB-231 breast; experiment: NCI tumour cell line growth inhibition, 48 h
Property Label: TGI (µM)

1. O=[N+]([O-])c1cccc2nccc(NCCCO)c12; 41.4
2. [N-]=[N+]=Nc1c([N+](=O)[O-])c(=O)n2c3c(cccc13)CCC2; 25.9
3. OC(CC(O)(C(F)(F)F)C(F)(F)F)c1ccc(C(O)CC(O)(C(F)(F)F)C(F)(F)F)cc1 (stereo unspecified); 28.7
4. CC1=C(C)C(=O)C(C2=CC(=O)C=CC2=O)=C(C2=CC(=O)C=CC2=O)C1=O; 42.5
5. O=C(CCCCC(=O)N/N=C\c1ccccc1O)N/N=C\c1ccccc1O; 57.5

---

tested on: MDA-MB-231 breast; experiment: NCI tumour cell line growth inhibition, 48 h; in the data active means GI50 below about 0.43 µM; inactive means the rest
Labels: label 1 (active), label 0 (inactive)

1) O=C(c1ccccc1)c1c(C(F)(F)F)n([O-])c2ccc(C(F)(F)F)cc2[n+]1=O; label 1
2) Cc1ccc(Sc2cc3c(oc2=O)-c2ccccc2OC3O)cc1 (stereo not given); label 0
3) COc1cc(-c2csc(NC(=O)Nc3cc(Cl)cc(Cl)c3)n2)cc(OC)c1OC; label 0
4) O=c1ccc2nc(-c3ccccn3)nn(-c3ccccc3)c-2c1; label 0
5) CC#Cc1nc(Nc2cc(C)[nH]n2)c2ccccc2n1; label 0
6) Cc1cc(C(=O)c2ccccc2)c(C)c2c1[nH]c1ccc(Cl)cc12; label 1
7) Cc1c(Cl)cccc1NC(=O)c1sc2nc3c(cc2c1N)CCCCC3; label 0
8) CCCCCCCCCCCCCCCC1=NC(C)(C)CN1C(C)C; label 0
9) O=C1C(Cl)=C(Nc2cccc(O)c2)C(=O)N1Cc1ccc(Cl)cc1Cl; label 0
10) CC(C)(C)c1ccc(NS(=O)(=O)c2ccc3nc(NC(=O)c4cnccn4)[nH]c3c2)cc1; label 0
11) N#CC1C=Cc2c(ccc3ccccc23)N1C(=O)c1ccccc1 (stereo not given); label 0
12) CCN(Cc1c(Cl)cccc1Cl)c1ccc(CO)c(Cl)c1; label 0
13) Cc1cc(Nc2cc(N)ncn2)c(=O)n2c1C(=O)NC21CCCCC1; label 0
14) C=C1C(=O)O[C@H]2[C@H]1CC/C(COC(=O)NCc1ccc(Cn3c(=O)sn(-c4ccccc4)c3=O)cc1)=C\CC[C@@]1(C)O[C@@H]21; label 0
15) CCN(CC)C(=S)[S][Bi]([S]C(=S)N(CC)CC)[S]C(=S)N(CC)CC; label 1

---

test system: KM20L2 colon; experiment: NCI tumour cell line growth inhibition, 48 h
TGI by entry:
Property Label: TGI (µM)

1. CCN(CC)CCNC(=O)c1cccc2nc3ccccc3nc12; 67.8
2. CCN(CC)C(=S)[S][Bi]([S]C(=S)N(CC)CC)[S]C(=S)N(CC)CC; 1.23
3. CN(C)CC/C(=N\Nc1ccc(Cl)cc1Cl)c1ccccc1; 27.5
4. Cn1cccc1/C=C/c1cc(Br)c(/C=C/c2cccn2C)cc1Br; 58.4

---

TGI for assorted molecules
test system: HCT-116 colon; experiment: NCI tumour cell line growth inhibition, 48 h
Property Label: TGI

1. C=CCn1c(-c2ccc([N+](=O)[O-])cc2)csc1=N; > 100 µM
2. COc1ccc(C2=NN=C3C(c4ccccc4)=Nc4ccccc4N3C2)cc1; 71.2 µM
3. CCC[C@@H]1C(=O)N=C(N)N1C(=O)OCc1ccccc1; > 100 µM
4. CC(=O)/C(=C/N1CCNC1=S)C(=O)Nc1ccccc1C; > 100 µM
5. CC(=O)N/C(=C\c1ccc(Cc2nc3c([nH]2)C(=O)c2ccccc2C3=O)cc1)c1nc2c([nH]1)C(=O)c1ccccc1C2=O; > 100 µM
6. COc1cc(-c2csc(NC(=O)Nc3cc(Cl)cc(Cl)c3)n2)cc(OC)c1OC; 2.97 µM

---

tested on: OVCAR-3 ovarian; assay: NCI tumour cell line growth inhibition, 48 h
Property Label: TGI

1. O=C1CSc2cc([N+](=O)[O-])ccc2N1; > 100 µM
2. CC(=O)/C(=C/N1CCNC1=S)C(=O)Nc1ccccc1C; > 100 µM
3. CCOc1ccc2c(c1)c(=O)c1c(NCCN(CC)CC)ccc3nnn2c31; > 100 µM
4. O=c1c2ccccc2nc(N/N=C/c2ccccc2O)n1-c1ccccc1; 17.2 µM
5. Cc1cc(Nc2cc(N)ncn2)c(=O)n2c1C(=O)NC21CCCCC1; > 100 µM
6. C/C=N\N1C(=O)c2ccccc2C1=O; > 100 µM
7. COc1ccc(Sc2ccccc2N)cc1; > 100 µM
8. C=CC(COC(c1ccccc1)(c1ccccc1)c1ccccc1)N(CC)CC (configuration not stated); 20.3 µM
9. CCCCCCCCCCCCCCCC1=NC(C)(C)CN1C(C)C; 2.09 µM
10. COc1ccccc1C(=O)N(C)c1ccc(Cl)c(C(=O)OC(C)C)c1; > 100 µM
11. CC(O)c1cc(C(=O)N[C@@H](C)Cn2ccc(-c3ccc(C#N)c(Cl)c3)n2)n[nH]1 (some centres not stated); > 100 µM
12. CC1(C)C(=O)/C(=C\c2cccnc2)C[C@]2(C)[C@H]3CC[C@@H]4[C@@H](C(=O)/C=C/c5ccncc5)CC[C@@]4(C)[C@]3(C)CC[C@@H]12; 3.36 µM

Reference for the values: PubChem BioAssay (NCI)
